Assignment: determine reported Cmax for the given compounds.
assay: Plasma pharmacokinetics, noncompartmental analysis; conditions: human, plasma, po, 75 mg, Cmax, mean (SD), Day 3 (twice daily), midostaurin 75 mg oral; plasma
Express the result in ng/mL but write the number alone.

Inquiry: Recorded Cmax for CO[C@@H]1[C@H](N(C)C(=O)c2ccccc2)C[C@H]2O[C@]1(C)n1c3ccccc3c3c4c(c5c6ccccc6n2c5c31)C(=O)N[C@H]4O [CGP52421] , please?
Reply text: 1250

Inquiry: GET /values?readout=Cmax&item= CO[C@@H]1[C@H](N(C)C(=O)c2ccccc2)C[C@H]2O[C@]1(C)n1c3ccccc3c3c4c(c5c6ccccc6n2c5c31)C(=O)NC4 [Midostaurin, N-benzoylstaurosporin]
Reply text: 2270

----------
assay: Plasma pharmacokinetics, noncompartmental analysis; settings: human, plasma, po, 75 mg, Tmax, median (range), Day 3 (twice daily), midostaurin 75 mg oral; plasma
parameter-measured: Tmax (h)
Give the number; h is assumed, so skip it.

Inquiry: Entry CO[C@@H]1[C@H](N(C)C(=O)c2ccccc2)C[C@H]2O[C@]1(C)n1c3ccccc3c3c4c(c5c6ccccc6n2c5c31)C(=O)NC4 : reported Tmax = ?
Reply text: 1.1

Inquiry: Reported Tmax for CO[C@@H]1[C@H](N(C)C(=O)c2ccccc2)C[C@H]2O[C@]1(C)n1c3ccccc3c3c4c(c5c6ccccc6n2c5c31)C(=O)N[C@H]4O : what is it?
Reply text: 3.1

----------
Please provide measured Cmax for the entries that follow.
assay: Plasma pharmacokinetics, noncompartmental analysis; details: human, plasma, po, 75 mg, Cmax, mean (SD), Day 1 (single dose), midostaurin 75 mg oral; plasma
Write the answer as a number in ng/mL, unit excluded.

Inquiry: For the molecule shown here, CO[C@@H]1[C@H](N(C)C(=O)c2ccccc2)C[C@H]2O[C@]1(C)n1c3ccccc3c3c4c(c5c6ccccc6n2c5c31)C(=O)NC4 , give the reported Cmax.
Reply text: 2140

Inquiry: Using the record for CO[C@@H]1[C@H](N(C)C(=O)c2ccccc2)C[C@H]2O[C@]1(C)n1c3ccccc3c3c4c(c5c6ccccc6n2c5c31)C(=O)N[C@H]4O , report its Cmax.
Reply text: 384

----------
assay: Plasma pharmacokinetics, noncompartmental analysis; conditions: human, plasma, oral, 75 mg, time of peak concentrations post dose, midostaurin dosing; days 1 and 3
parameter-measured: Tmax

Inquiry: Reported Tmax, compound CO[C@@H]1[C@H](N(C)C(=O)c2ccccc2)C[C@H]2O[C@]1(C)n1c3ccccc3c3c4c(c5c6ccccc6n2c5c31)C(=O)N[C@H]4O : ____
Reply text: 3 to 4 h

Inquiry: Given the entry CO[C@@H]1[C@H](N(C)C(=O)c2ccccc2)C[C@H]2O[C@]1(C)n1c3ccccc3c3c4c(c5c6ccccc6n2c5c31)C(=O)NC4 , report its measured Tmax.
Reply text: 1 h

----------
assay: Plasma pharmacokinetics, noncompartmental analysis; conditions: human, plasma, oral, 400 mg, Cmax, median, moxifloxacin 400 mg overencapsulated, day 3
parameter-measured: Cmax (ng/mL)
Respond numerically; units are ng/mL and should not be typed.

Inquiry: Report Cmax for COc1c(N2C[C@@H]3CCCN[C@@H]3C2)c(F)cc2c(=O)c(C(=O)O)cn(C3CC3)c12 [Moxifloxacin, reference compound] please.
Reply text: 2460

----------
experiment: Plasma pharmacokinetics, noncompartmental analysis; conditions: human, plasma, po, 75 mg
parameter-measured: AUC(0-t) (ng·h/mL)
Please state the figure in ng·h/mL; there is no need to write the unit.

Inquiry: Sample CO[C@@H]1[C@H](N(C)C(=O)c2ccccc2)C[C@H]2O[C@]1(C)n1c3ccccc3c3c4c(c5c6ccccc6n2c5c31)C(=O)N[C@H]4O [CGP52421] — what was its AUC(0-t)?
Reply text: 3510
